Biological target: T1, cyno TfR extracellular domain (analogous construct to human TfR ecd) (cynomolgus monkey, UniProt Q5RDH6 87-760 (Pongo abelii entry))
T1 construct: also called cynoTfR ecd
T1 chain: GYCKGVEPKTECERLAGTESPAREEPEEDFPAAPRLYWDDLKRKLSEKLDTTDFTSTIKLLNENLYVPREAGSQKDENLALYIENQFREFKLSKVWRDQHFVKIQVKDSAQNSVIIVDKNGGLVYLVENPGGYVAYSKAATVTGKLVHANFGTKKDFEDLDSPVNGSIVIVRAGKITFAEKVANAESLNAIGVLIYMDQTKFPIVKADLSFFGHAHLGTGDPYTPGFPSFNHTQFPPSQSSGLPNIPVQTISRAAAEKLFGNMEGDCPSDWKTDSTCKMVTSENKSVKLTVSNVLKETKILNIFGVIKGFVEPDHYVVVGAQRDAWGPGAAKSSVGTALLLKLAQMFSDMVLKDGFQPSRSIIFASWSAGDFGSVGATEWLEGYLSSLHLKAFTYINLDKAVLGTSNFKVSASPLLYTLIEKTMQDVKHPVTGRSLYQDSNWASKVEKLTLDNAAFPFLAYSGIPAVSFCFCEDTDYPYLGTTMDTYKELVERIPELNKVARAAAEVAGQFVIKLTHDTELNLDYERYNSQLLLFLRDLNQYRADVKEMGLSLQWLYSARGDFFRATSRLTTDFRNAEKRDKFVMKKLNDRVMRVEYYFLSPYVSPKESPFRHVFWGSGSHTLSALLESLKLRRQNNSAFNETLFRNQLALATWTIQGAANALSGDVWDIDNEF
Assay: SPR, TfR captured by anti-His, Fab injected;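 note: single cycle kinetics with a Fab dilution series, fitted by a one-to-one Langmuir model or a steady state model, KD taken as koff over kon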
Measurement kind: pKd
pKd (log units): -log10 of the concentration in mol/L.

Prompt line: Recorded pKd of Hu15G11.v3.Fab (Fab, V domains shown, Fab) VH: EVQLVQSGAEVKKPGASVKVSCKASGYTFTSYWMHWVRQAPGQRLEWMGEINPTNGRTNYIEKFKSRVTITRDTSASTAYMELSSLRSEDTAVYYCARGTRAYHYWGQGTMVTVSS VL: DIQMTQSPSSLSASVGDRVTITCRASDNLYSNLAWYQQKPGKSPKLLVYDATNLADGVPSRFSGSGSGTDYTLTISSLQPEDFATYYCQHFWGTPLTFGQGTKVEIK , please.
Response line: 7.38

Prompt line: Same question, Hu7A4.v9.Fab (Fab, V domains shown, Fab) VH: EVQLVQSGAEVKKPGASVKVSCKASGYTFTDYAMHWVRQAPGQGLEWMGGISTYFGRTNYNQKFKGRVTMTRDTSISTAYMELSRLRSDDTAVYYCARGLSGNYVMDYWGQGTTVTVSS VL: DIVMTQSPDSLAVSLGERATINCRASESVDSYGNSFMHWYQQKPGQPPKLLIYRASNLESGVPDRFSGSGSRTDFTLTISSLQAEDVAVYYCQQSNEGPPTFGQGTKLEIK this time
Response line: 8.37

Prompt line: Note, next up: Hu15G11.v1.Fab (Fab, V domains shown, Fab) VH: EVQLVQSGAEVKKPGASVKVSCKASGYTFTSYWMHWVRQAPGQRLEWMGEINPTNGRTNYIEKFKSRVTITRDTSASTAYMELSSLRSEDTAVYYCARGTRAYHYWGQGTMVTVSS VL: DIQMTQSPSSLSASVGDRVTITCRASDNLYSNLAWYQQKPGKAPKLLLYDATNLADGVPSRFSGSGSGTDYTLTISSLQPEDFATYYCQHFWGTPLTFGQGTKVEIK
Response line: 7.13
